apparent KD of K4 kissing-loop reporter: recorded values
System: K4 kissing-loop RNA reporter;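 note: bound reporter read as fluorescence of individual clusters on recovered sequencing chips by microscopy, with normalized cluster intensities fitted with a binding model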
Method Summary: apparent KD of K4 kissing-loop reporter; higher = weaker reporter binding
Details: Eterna round: R107; input ligand: FMN 200 uM
Measured Endpoint: apparent KD of K4 kissing-loop reporter (nM)

* UAAUAUCCGUCGGCCGCCACUCACUAGUGAUGUUAGAGGAGUGAUGUUCCACGAGUGAUGUUCGAGAGGACCGGGACGGACGAUG [7th] | 75.1
* UGUGAACAAAAGUAGAGUGGACCACUAUAGCGAGGACCGGUACGGCCGCCACUCGUACAUGAAUUCAGUGAUGUUGAAAAGAGCU [whbob_EX_Tryp_A_t13] | 294
* AAGGACUGCCAGGGAACACACUCAUUAUGGGAGGAUAUGUUAGCUGACAGAAGGCCCAGUGAUGUUGGGCCGGCGGGCUGUCAGG [Diargean] | 244

* * *

System: MS2 coat protein
Method Summary: apparent KD of MS2 coat protein; designed switch direction (-1 OFF switch, 1 ON switch): -1; higher = weaker reporter binding
Details: Eterna round: R95; input ligand: microRNA oligo, concentration not stated
If the reported apparent KD of MS2 coat protein equals or exceeds 20 nM, assign 1 (yes). If not, assign 0 (no).

• CAGUACUGAGGAUAUACAUGAGGAUCACCCAUGUGCUUCAGCUAGGAUACUAGCAUUAGUAGAAGGCAGUACUG [Fiskers Ex 3 828 mod 13] (puzzle: Exclusion 3) = 0 (no)
• AGUAGUAGUAUCCGAUCCUACAUGAGGAUCACCCAUGUAGCUAGACGUGCACGCGAUGCUCGUCAGACUACCAGAUG [salish99_TOv1_r3_033] (puzzle: Sensor v3, turn-off variant 1) = 1 (yes)
• GGUCUGCGAGGAUAUACAUGAGGAUCACCCAUGUGCGAGAUACUAGUGAGGUCGAUUGGUAGAAGGCGCGGACG [JL-ex3-2.06 salish99 mod] (puzzle: Exclusion 3) = 1 (yes)
• AGAUUACGAGGAUAUCGAGUUUAGUACAUGAGGAUCACCCAUGUUAUCCAGGUCUCGUUUCGAGAAGGCGUGAUUC [LRO-Ex5-08] (puzzle: Exclusion 5) = 1 (yes)
• CUCCUCAUGGCGCCUAAACACAUGAGGAUCACCCAUGUACAGGCUUUUCGCCGUCUUAUAAUAAAACCGAGGAUGCG [Soislebice] (puzzle: Sensor v3, turn-off variant 1) = 1 (yes)
• ACAGCGUGAGGAUAUACAUGAGGAUCACCCAUGUAUGGCAGGUUAUCCUGUCGUGAGUGUAGAAGGCACGCUGU [Exclusion 3 - Oddities v.5 ( A small slide from ms2 to fmn)] (puzzle: Exclusion 3) = 0 (no)
• CCGGAAAUAGAGGAUAUCGUAUCGGAUACGAUACGAGAAGGCUGUACAUGAGGAUCACCCAUGUGUCCUACCGG [Fiskers Ex 6 - 58] (puzzle: Exclusion 6) = 0 (no)
• GAGGCAUGCCGAGGUCCACACAUGAGGAUCACCCAUGUAAUGACAGGCUUUUUACUCGUUUUACCGCUAUCGCGUUC [Gedied] (puzzle: Sensor v3, turn-off variant 1) = 1 (yes)
• GAUCAACAUGAGGAUCACCCAUGUGAGGAUAUGAUACUAUGUACUUCGGUACAUAGUAUCAGAAGGCAUGUAAA [Ex1-3: 78] (puzzle: Exclusion 1) = 1 (yes)
• CCGAGGUGGCGGUCCUAUGACAUGAGGAUCACCCAUGUACCUCGCCACGAGCUUUUUGCUCACCUUAUAAUUCUCGG [Ragequen] (puzzle: Sensor v3, turn-off variant 1) = 0 (no)

The origin of these recorded values is the supplement of paper PMC9170038.
